Answer each item with its documented growth.
# Tested on: CCRF-CEM leukemia
# assay.text: NCI-60 one-dose screen, 48 h (100 = growth as untreated, 0 = no growth, -100 = all killed)
# run.conditions: 10 µM unless noted
The panel holds about 83,000 compounds, 20% with a hit somewhere; the sample as a whole holds those more often.
Report the figure in % without appending any unit label.

Input: Please give the measured growth for this compound: `CCOC(=O)/C(=C\c1ccccc1Cl)P(=O)(OCC)OCC`
Output: 19.5

Input: Please give the measured growth for this compound: `O=C1/C(=C/c2ccc(-c3ccc(Cl)cc3)o2)SC(=S)N1CCc1ccc(O)cc1`
Output: 13.5

Input: Please give the measured growth for this compound: `COc1ccc(-c2nc(SCCC(C)C)nc(N/N=C(/C)c3ccc(N)cc3)c2C#N)cc1`
Output: 95.8

Input: Please give the measured growth for this compound: `CCN(CC)CCCNC(=O)c1c2c(n3ccccc13)C(=O)c1ncccc1C2=O`
Output: -36.2

Input: Please give the measured growth for this compound: CCOC(=O)C1=C(C)N(C)C(=O)N(C)C1c1ccccc1 (stereo not given)
Output: 86.6

---

# System: MOLT-4 leukemia
# assay.text: NCI-60 one-dose screen, 48 h (100 = growth as untreated, 0 = no growth, -100 = all killed)
# run.conditions: 10 µM unless noted
# Method: Growth inhibition of the MOLT-4 human tumor cell line is measured as a screen for anti-cancer activity. Cells are grown in 96 well plates and exposed to the test compound for 48 hours. Compounds are tested at a single concentration, which is 10^-5 M for most compounds. The reported endpoint is percent growth (GI% or GIPRCNT), where numbers from 0 - 100% represent growth inhibition, and numbers from -100% - 0 represent cell death. For example, a value of 40 represents 60% growth inhibition. […]
The panel holds about 83,000 compounds, 20% with a hit somewhere; the sample as a whole holds those more often.
Think of 30% as a floor: if growth stands on it or above, it is true (1); beneath it, false (0).

Input: Form field: growth at least 30%? Entry: `COc1ccc2c(c1)C(c1c[nH]c3ccccc13)(c1c[nH]c3ccccc13)CCO2`
Output: false (0)

Input: Form field: growth at least 30%? Entry: `CCOC(=O)c1c(N)sc2cc(O)ccc12`
Output: true (1)

Input: Form field: growth at least 30%? Entry: `Cc1nc2ccccc2c(/C=C/c2ccc(Cl)cc2)c1C(=O)/C=C/c1ccccc1`
Output: false (0)

Input: Form field: growth at least 30%? Entry: `CC1(C)CC[C@]2(CO)CC[C@]3(C)[C@H](CC[C@@H]4[C@@]5(C)CC[C@H](O)C(C)(C)[C@@H]5CC[C@]43C)[C@H]2[C@H]1O`
Output: true (1)

Input: Form field: growth at least 30%? Entry: `O=c1ccc2c(ccc3ncccc32)o1`
Output: true (1)

Input: Form field: growth at least 30%? Entry: N#C/C(=C\c1cccc2cnccc12)N1N=NC2C=CC=CC21 (stereo not drawn)
Output: true (1)

Input: Form field: growth at least 30%? Entry: CCC(C)C(N)C(=O)NC(CC(C)C)C(=O)N1CCCC1C(=O)NC(Cc1c[nH]c2ccccc12)C(=O)NC(CCCCN)C(=O)NC(Cc1c[nH]c2ccccc12)C(=O)N1CCCC1C(=O)NC(Cc1c[nH]c2ccccc12)C(=O)NC(Cc1c[nH]c2ccccc12)C(=O)N1CCCC1C(=O)NC(Cc1c[nH]c2ccccc12)C(=O)NC(CCCNC(=N)N)C(=O)NC(CCCNC(=N)N)C(N)=O (stereo not drawn)
Output: false (0)

Input: Form field: growth at least 30%? Entry: `O=C(CNc1ncco1)Nc1ccc(S(=O)(=O)c2ccc(NC(=O)CNc3ncco3)cc2)cc1`
Output: false (0)

Input: Form field: growth at least 30%? Entry: `CC(=O)[C@H]1CC[C@]2(C)[C@@H]1CC[C@@H]1[C@@]3(C)C/C(=C/c4cccnc4)C(=O)C(C)(C)[C@@H]3CC[C@]12C`
Output: false (0)

Input: Form field: growth at least 30%? Entry: `CCCCN(CCC#N)C(N)=O`
Output: true (1)

Input: Form field: growth at least 30%? Entry: `CN1CCN(CCCNC(=O)c2c3c(n4ccccc24)C(=O)c2ncccc2C3=O)CC1`
Output: false (0)

Input: Form field: growth at least 30%? Entry: `NC(=O)[C@@H]1Cc2ccccc2CN1C(=O)c1ccc2c(c1)Cc1ccccc1-2`
Output: true (1)

Input: Form field: growth at least 30%? Entry: `CC(=O)c1c(/C=C/c2ccc(C)cc2)c2ccccc2[nH]c1=O`
Output: true (1)

Input: Form field: growth at least 30%? Entry: CCN1C(=O)N(CC)C2C1NN=c1s/c(=C\c3ccc([N+](=O)[O-])cc3)c(=O)n12 (stereo not drawn)
Output: false (0)

Input: Form field: growth at least 30%? Entry: `N=C(N)c1ccc(-c2ccc(-c3ccc(Cl)cc3Cl)s2)nc1`
Output: false (0)

Input: Form field: growth at least 30%? Entry: `CCCS(=O)(=O)Nc1cccc(Nc2ncnc3cc(NC(=O)CCl)ccc23)c1Cl`
Output: false (0)

Input: Form field: growth at least 30%? Entry: `O=C1c2ccccc2-c2c1c1ccncc1c(=O)n2CCCn1ccnc1`
Output: false (0)

Input: Form field: growth at least 30%? Entry: `CN1CCN(Cc2ccc(NC(=O)c3cc(C#Cc4cnc(N)c5ncccc45)n(C)n3)cc2C(F)(F)F)CC1`
Output: true (1)
